# assay-explanation: inhibitors of the yeast RAM network, pilot screen, dse1pr::URA3 reporter, 5-FOA selection (AID 869);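 also: 0% = DMSO wells with no growth and 100% = 10 µM 1-NA-PP1 with full growth; RAM network block rescues cells from 5-FOA so hits raise OD615 growth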
# stated-conditions: S. cerevisiae dse1pr::URA3 5-FOA growth, OD615, 2 d; at 10 µM; stronger effect = higher value; strain carries analog-sensitive mutant Cbk1 kinase
recorded-endpoint: inhibition (%)
Answers are plain numbers, in %.

Below, each entry is followed by its recorded inhibition result.
Just so you know, measured inhibition for CCOC(=O)c1cn(-c2ccccc2)nc1-c1cccnc1 came out at 1.63

So for N#Cc1nc(COc2cccc(Cl)c2)oc1N1CCCC1 , the logged inhibition turned out to be -0.7

Quick note, inhibition for Cc1c(N=c2c(=O)c3ccccc3c2=O)c(=O)n(-c2ccccc2)n1C landed at 4.17

Dear colleague, could you send me inhibition for each of the items below? Thanks.
1. CCCOc1ccc(C2c3c(oc4cc(C)c(C)cc4c3=O)C(=O)N2CCCN(C)C)cc1 (stereo unspecified)
2. Cc1nc(-c2ccc(S(=O)(=O)N3CCCCCC3)cc2)cs1
3. COc1ccc(C2CC(c3ccc(Cl)cc3)n3nc(N)nc3N2)cc1 (stereo unspecified)
4. CC1(C)CC(=O)c2cc(C(=O)N3CCN(CCO)CC3)c(=O)n(-c3ccc(Cl)cc3)c2C1
5. C=Cn1ccnc1P(=S)(c1ccc2c(c1)c1ccccc1n2CC)c1nccn1C=C

1. 0.185
2. 0.075
3. 3.23
4. 1.81
5. 3.5

Below are 3 compounds. Give each one its inhibition.
1. O=C(COc1ccc2c3c(c(=O)oc2c1)CCC3)c1ccc2c(c1)OCO2
2. COc1ccc2c(c1)[nH]c1c(N3CCN(Cc4ccc5c(c4)OCO5)CC3)ncnc12
3. Cc1cc(N)n2ncc(-c3cccc(Br)c3)c2n1

1. 2.27
2. 2.08
3. 0.315

====

Record form. Attribute: viability increase. Fill in for each entry.
# assay-explanation: viability gain of MRP-1-high H69AR cells under doxorubicin, pilot screen, MRP-1 activator project, CellTiter-Glo, duplicate (AID 807);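 also: compound pretreatment 18-22 h then 72 h combined with doxorubicin; 0% = doxorubicin alone and 100% = vehicle without doxorubicin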
# stated-conditions: H69AR viability with doxorubicin, CellTiter-Glo luminescence; at 10 µM; stronger effect = higher value
Numbers only, in %.

Recorded viability increase, per entry:
# viability increase of Cc1cccc(N(C)c2cc(C)nc3ncnn23)c1 = -1.19

Measured viability increase, CCOC(=O)N1CCN(C(=O)CCc2nc3sc4c(c3c(=O)[nH]2)CCCC4)CC1 : -2.68

Summary for this molecule, CCn1c(COc2cccc3cccnc23)nnc1SCC(=O)O : viability increase is -0.53

Attention now shifts to the item below.
Kindly note the recorded viability increase for Clc1ccc(Sc2oc(/C=N/n3cnnc3)cc2Br)cc1 , which is -8.12

====

Answer each item with its documented viability.
# assay-explanation: reducers of endogenous Her2 protein level, primary screen, SKBR3 breast tumor cells, AlphaScreen, ATP viability (AID 461);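 also: percent of carrier control wells set as 100% viability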
# stated-conditions: 18-24 h, measured here: SKBR3 viability, ATP luminescence, at 10 µM
The answer should read as a number with its unit following.

Some solved entries appear below for comparison.
// CCN(CC)CCN1C(=O)C(=O)/C(=C(/O)c2c(C)[nH]c(C(=O)OC)c2C)C1c1ccccc1OC (stereo unspecified) : viability value = 104%

// viability lookup, compound = CCCCOCCCNC(=O)c1cccs1 , result: 103%

Return reported viability values for all items listed beneath this line.
1. CCOC(=O)c1c(C)c(C(=O)NCCN2CCOCC2)c(C)n1C
2. c1ccc(-c2noc(C3CCCCC3)n2)nc1
3. N#CC1=C(SCC(=O)NC2CCCCC2)NC(=O)CC1c1ccco1 (stereo unspecified)
4. COc1cccc(OC)c1C(=O)n1nc(C)cc1C
5. Cc1cc(C(=O)CSc2nnc(-c3ccco3)o2)c(C)n1CC1COc2ccccc2O1 (stereo unspecified)

89.5%
91%
113%
84.5%
91.5%

Please state viability for every compound in the list that follows.
1. Cn1c(Cl)nc2ccccc21
2. Cc1nc2ccc(NC(=O)N3CCC(c4ccccc4)C3)cc2nc1C (stereo unspecified)
3. Cc1ccc(C)n1NC(=O)c1ccco1
4. CCCN1CCN(CCCNC(=O)C2CCCN(c3nc4ccc(OCC)cc4s3)C2)CC1 (stereo unspecified)

1. 115%
2. 101%
3. 90%
4. 85.5%

Dear reader, for each entry below, please note its viability.
1. S=c1[nH]nc(-c2cccc(Br)c2)o1
2. Nc1nc(CSCc2ccccc2)nc(N2CCOCC2)n1
3. FC(F)(F)c1cccc(N2CCN(Cc3cccnc3)CC2)c1
4. COc1ccc(C2C(C(=O)c3sc(C)nc3C)=C(O)C(=O)N2CCN(C)C)cc1OC (stereo unspecified)
5. O=C(NC1CCCC1)c1ccc2nc[nH]c2c1
6. CC(=O)N1C(=O)N(C)C2C1N(C(C)=O)C(=O)N2C (stereo unspecified)
7. CCOC(=O)Cc1c(C)c2c(O)cc(O)cc2oc1=O
8. CCC1(c2ccccc2)C(=O)NCNC1=O

91%
99.5%
90.5%
108%
93.5%
125%
84.5%
96.5%
